molecular target: MEK1 (Homo sapiens); construct: purchased SignalChem M02-14H; test: MEK1 kinase cascade assay (ADP-Glo), inhibition of MEK1 kinase activity; format: biochemical; details: 25 nM BRAF, 6.25 nM MEK1, 0.5 μM ERK, 1 mM ATP; 20 min preincubation, 1 hr at 25° C.; read-out: BRAF ADP Glo kinase assay V3 (IC50)
Sequence (Q02750 whole entry): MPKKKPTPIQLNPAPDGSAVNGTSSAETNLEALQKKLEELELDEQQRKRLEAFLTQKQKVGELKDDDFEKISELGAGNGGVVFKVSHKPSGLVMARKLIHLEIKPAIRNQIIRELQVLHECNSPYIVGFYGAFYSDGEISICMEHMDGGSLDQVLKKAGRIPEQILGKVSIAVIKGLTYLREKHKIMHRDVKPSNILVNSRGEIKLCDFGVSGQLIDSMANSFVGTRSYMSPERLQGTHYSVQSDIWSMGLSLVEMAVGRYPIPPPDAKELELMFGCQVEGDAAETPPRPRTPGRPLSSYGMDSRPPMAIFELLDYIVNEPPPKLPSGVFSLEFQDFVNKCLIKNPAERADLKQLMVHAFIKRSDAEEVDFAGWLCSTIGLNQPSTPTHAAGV
Sequence (P15056 445-723 partner limits assumed): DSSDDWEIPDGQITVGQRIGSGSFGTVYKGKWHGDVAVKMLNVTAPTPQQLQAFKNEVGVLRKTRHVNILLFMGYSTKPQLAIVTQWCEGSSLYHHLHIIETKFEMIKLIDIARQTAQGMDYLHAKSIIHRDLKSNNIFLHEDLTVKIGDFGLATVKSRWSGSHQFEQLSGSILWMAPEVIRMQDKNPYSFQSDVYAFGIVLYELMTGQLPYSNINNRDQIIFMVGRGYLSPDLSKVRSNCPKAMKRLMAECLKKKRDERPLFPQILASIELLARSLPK
pIC50: −log10 of the molar value.
The entries below are paired with their reported pIC50.
Parameter: pIC50

* CNS(=O)(=O)Nc1cccc(CN2C(=O)Oc3cc(Oc4ncco4)c(F)cc3C23COC3)c1F | 7.30 to 8.30
* [2H]C1([2H])c2ccc(Oc3cccnn3)cc2OC(=O)N1Cc1cccc(NS(=O)(=O)NC)c1F | 7.30 to 8.30
* CNS(=O)(=O)Nc1nccc(CN2C(=O)Oc3cc(Oc4ncco4)c(F)cc3C23CCC3)c1F | > 8.30
* O=C1Oc2cc(Oc3cccnn3)ccc2C2(COC2)N1Cc1cccc(NS(=O)(=O)C2CC2)c1F | 7.30 to 8.30
* CNS(=O)(=O)Nc1nccc(CN2C(=O)Oc3cc(Oc4ncco4)cc(F)c3C23COC3)c1F | 7.30 to 8.30
* CN(C)S(=O)(=O)Nc1cccc(CN2C(=O)Oc3cc(Oc4cccnn4)ccc3C23CCC3)c1F | > 8.30
* CNS(=O)(=O)Nc1cccc(CN2C(=O)Oc3cc(Oc4cccnn4)ccc3[C@@H]2C)c1F (single isomer, unassigned) | 7.30 to 8.30
* CNS(=O)(=O)Nc1nccc(CN2C(=O)Oc3c(ccc(Oc4ncco4)c3F)C23CCC3)c1F | 7.30 to 8.30
* CNS(=O)(=O)Nc1cccc(CN2Cc3ccc(Oc4cccnc4)cc3OC2=O)c1F | 7.30 to 8.30
* CNS(=O)(=O)Nc1cccc(CN2C(=O)Oc3c(ccc(Oc4cccnn4)c3F)[C@@H]2C)c1F (single isomer, unassigned) | > 8.30
* CNS(=O)(=O)Nc1cccc(CN2C(=O)Oc3c(ccc(OC(=O)N(C)C)c3F)C23COC3)c1F | 7.30 to 8.30
* CNS(=O)(=O)Nc1cccc(CN2C(=O)Oc3cc(Oc4cccnn4)c(F)cc3C23CCC3)c1F | 7.30 to 8.30
* CNS(=O)(=O)Nc1cccc(CN2C(=O)Oc3cc(Oc4ncco4)cc(F)c3[C@H]2C)c1F (single isomer, unassigned) | 6.30 to 7.30
* CNS(=O)(=O)Nc1nccc(CN2C(=O)Oc3cc(Oc4cccnn4)ccc3[C@H]2C)c1F (single isomer, unassigned) | 7.30 to 8.30
